Measured relative β-galactosidase activity, inducer Ci of individual entries
test system: tetA promoter (PtetA)-lacZ reporter in E. coli KM3; format: cell-based; settings: Table 6, reverse repressor hits; chlorimuron, same plate assay format as Table 4
Number, no unit, nothing else.

Take a look at these entries with their results.
L1-39: library L1 reverse repressor hit (SEQ ID NO: 1206-1213) (protein, rSuR L1-39) MGSRLDKSKVINSALELLNEVGIEGLTTRKLAQKLGVEQPTLYWHVKNKRALLDALAIEMMDRHQTHFCPLEGESWQDFLRNTAKSYRCALLSHRDGAKVILGTRWTEKQYETRENVLAFLCQQGFSLENALYAWAAVGPFTLGCVLRDQERQVAKEERETPTTDSMPPLLRQALELMDHQGAEPAFLFGLELIICGLEKQLKCESGS | 0.49
L1-25: library L1 reverse repressor hit (SEQ ID NO: 1206-1213) (protein, rSuR L1-25) MGSRLDKSKVINSALELLNEVGIEGLTTRKLAQKLGVEQPTLYWHVKNKRALLDALAIEMLDRHATHFCPLEGESWQDFLRNTAKSMRCALLSHRDGAKVLLGTATTEKQYETLENLLAFLYQQGFSLENALYAWQAVWRFTLGCVLIDQETQVAKEERETPTTDSMPPLLRQAVELKDHQGAEPAFLFGLELIICGLEKQLKCETGS | 0.11
L1-34: library L1 reverse repressor hit (SEQ ID NO: 1206-1213) (protein, rSuR L1-34) MGSRLDKSKVINSALELLNEVGIEGLTTRKLAQKLGVEQPTLYWHVKNKRALLDALAIEMADRHNTHFCPLEGESWQDFLRNAARSMRCALLSHRDGAKVYLGTARTEKQYETTENVLAFLCQQGFSLENALYAVRAVPRFTLGCVLLDQERQVAKEERETPTTDSMPPLLRQARELTDHQGAEPAFLFGLELIICGLEKQLKCESGS | 0.43
L1-18: library L1 reverse repressor hit (SEQ ID NO: 1206-1213) (protein, rSuR L1-18) MGSRLDKSKVINSALELLNEVGIEGLTTRKLAQKLGVEQPTLYWHVKNKRALLDALAIEMLDRHLTHFCPLEGESWQDFLRNNAKSMRCALLSHRDGAKVWLGTGFTEKQYETKENRLAFLCQQGFSLENALYAIRAVSRFTLGCVLQDQEPQVAKEERETPTTDSMPPLLRQAVELFDHQGAEPAFLFGLELIICGLEKQLKCESES | 0.36

relative β-galactosidase activity, inducer Ci reading for L1-36: library L1 reverse repressor hit (SEQ ID NO: 1206-1213) (protein, rSuR L1-36) MGSRLDKSKVINSALELLNEVGIEGLTTRKLAQKLGVEQPTLYWHVKNKRALLDALAIEMADRHHTHFCPLEGESWQDFLRNAAKSMRCALLSHRDGAKVRLGTAWTEKQYETHENVLAFLCQQGFSLENALYALKAVSGFTLGCVLKDQEMQVAKEERETPTTDSMPPLLRQATELVDHQGAEPAFLFGLELIICGLEKQLKCESGS : 0.21
